# experimentalTarget: T1, His-tagged mouse B7-H3 (mouse, UniProt Q8VE98 29-244, limits assumed)
# T1 construct: Bought His-tagged protein coated on the ELISA plate; also called mu B7-H3; murine B7-H3
# T1 sequence (looked up): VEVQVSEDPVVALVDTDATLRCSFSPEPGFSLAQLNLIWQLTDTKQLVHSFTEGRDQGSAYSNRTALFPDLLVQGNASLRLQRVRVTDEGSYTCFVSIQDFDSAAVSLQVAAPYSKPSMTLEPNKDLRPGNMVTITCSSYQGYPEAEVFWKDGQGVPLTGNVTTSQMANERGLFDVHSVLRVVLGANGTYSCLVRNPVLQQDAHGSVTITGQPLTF
# testSummary: ELISA, coated His-tagged antigen, scFv-Fc 1 ug/ml
Task for the reader: assign each of the following binders its reported ELISA OD450 @ 1 ug/ml.
Answers are plain numbers, in OD450.

INSERT INTO assay_data (binder, readoutkind, experimentalvalue) VALUES
  ('40511p1.1.G1 (scFv, V domains shown, Tested as scFv-Fc (Expi293 supernatant)) VH: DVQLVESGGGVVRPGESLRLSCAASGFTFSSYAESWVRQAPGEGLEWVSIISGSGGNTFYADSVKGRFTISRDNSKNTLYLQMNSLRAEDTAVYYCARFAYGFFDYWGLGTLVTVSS VL: EIVLTQSPGTLSVSPGEGATLSCRASQTVGSKLAWYQQKPGQPPSLLIYDASTRATGIPDRFSGSGSGTDFTLTISSLQSEDFAVYYCQQYRNWPPLTFGGGTKVEIK', 'ELISA OD450 @ 1 ug/ml', 1.67);

Look at each binder and report its ELISA OD450 @ 1 ug/ml.
1. 40633p1.2.E1 (scFv, V domains shown, Tested as scFv-Fc (Expi293 supernatant)) VH: EVQLLESGRGLVQPGGSLRLSCAASGFTVSYYGMSWVRQAPGKGLEWVSVIKQDGSEEYYADSVKGRFTISRDNSKNTLYLQMNSLRAEDTAVYYCARHWNDYSNGMNVWGQGTTVTVSS VL: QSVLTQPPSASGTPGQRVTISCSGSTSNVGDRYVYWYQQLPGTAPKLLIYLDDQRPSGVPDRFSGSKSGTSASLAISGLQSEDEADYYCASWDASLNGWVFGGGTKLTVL
2. 40633p1.1.A6 (scFv, V domains shown, Tested as scFv-Fc (Expi293 supernatant)) VH: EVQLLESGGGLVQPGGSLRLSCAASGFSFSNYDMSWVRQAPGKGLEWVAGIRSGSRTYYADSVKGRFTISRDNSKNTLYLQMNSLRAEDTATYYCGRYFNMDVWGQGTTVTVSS VL: QSVLTQPPSASGTPGQRVTISCSGSTFNIGTNLVHWYQQLPGTAPKLLIYLTDRRPSGVPDRFSGSKSGTSASLAISGLQSEDEANYYCATWDDSLNSFLFGGGTKLTVL

1. 1.98
2. 1.26
